target-or-test-system: Streptokinase A (Streptococcus pyogenes serotype M1, UniProt P10520)
Sequence (P10520 whole entry): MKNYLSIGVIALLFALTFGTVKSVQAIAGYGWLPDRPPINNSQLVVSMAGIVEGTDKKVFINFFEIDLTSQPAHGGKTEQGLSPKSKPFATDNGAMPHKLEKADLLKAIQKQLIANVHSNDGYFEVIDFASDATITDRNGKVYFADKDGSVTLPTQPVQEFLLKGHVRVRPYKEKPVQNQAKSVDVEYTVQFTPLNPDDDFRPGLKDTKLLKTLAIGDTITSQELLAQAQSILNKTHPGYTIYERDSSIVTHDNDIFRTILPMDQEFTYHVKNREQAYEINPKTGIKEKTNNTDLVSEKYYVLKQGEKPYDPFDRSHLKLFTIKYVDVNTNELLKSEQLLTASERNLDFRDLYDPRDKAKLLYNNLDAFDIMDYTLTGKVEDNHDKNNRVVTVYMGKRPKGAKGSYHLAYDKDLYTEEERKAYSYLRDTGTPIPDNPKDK
assay-details: viability-normalized secreted streptokinase activity reduction – plasminogen activation absorbance, OD405, dose response (AID 1914);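 note: secreted streptokinase activity via plasminogen activation per viability signal from cell pellet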
Format: functional, Streptococcus pyogenes M1 GAS
Active and inactive are the calls of the source.
attribute-measured: EC50

Nc1c(-c2ccccc2)c(CSc2nc3ccccc3[nH]2)nn1-c1cccc(Cl)c1 ... > 150 µM (not active)
CCC(C)(C)c1ccc(OCCCC[n+]2cccc(C)c2)c(C(C)(C)CC)c1 ... 14.1 µM (active)
COc1cc(/C=N/NC(=O)c2cc(-c3c(C)nn(-c4ccccc4)c3C)[nH]n2)ccc1O ... 43.9 µM (inconclusive)
O=C(Nc1scc(-c2ccc(Br)cc2)c1C(=O)O)c1ccccc1F ... 9.9 µM (active)
COc1cc(/C=C2\SC(Nc3cccnc3)=NC2=O)cc(OC)c1OC ... > 150 µM (not active)
Nc1ccc2[nH]c(-c3cc(Cl)c(N)c(Cl)c3)nc2c1 ... > 150 µM (not active)
O[C@@H]1CCCN2CCc3c([nH]c4ccccc34)[C@H]12 ... > 150 µM (not active)
CCCC(=O)NCCc1ccc(F)cc1 ... > 150 µM (not active)
O=C(Nc1ccc(F)cc1)c1nc2c(nnn2Cc2cccc3ccccc23)c(=O)[nH]1 ... > 150 µM (not active)
Cc1ccc(C(C)C)cc1OCC(=O)Nc1ccccc1N1CCCC1 ... 14.1 µM (active)
Cc1c(C(=O)N/N=C/c2c(O)ccc3ccccc23)nnn1-c1nonc1N ... > 150 µM (not active)

----------
# Lookup of reported IC50 keyed by entry
target-or-test-system: UniProt:P42574
Sequence (P42574 whole entry): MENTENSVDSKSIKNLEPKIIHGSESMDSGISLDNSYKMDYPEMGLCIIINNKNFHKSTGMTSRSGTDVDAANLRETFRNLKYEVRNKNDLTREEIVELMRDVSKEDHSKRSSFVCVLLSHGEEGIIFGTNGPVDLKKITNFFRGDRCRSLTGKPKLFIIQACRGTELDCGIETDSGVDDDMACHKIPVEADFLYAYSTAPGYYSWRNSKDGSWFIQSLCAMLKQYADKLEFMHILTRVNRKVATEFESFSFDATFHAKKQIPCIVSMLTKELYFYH
Type: functional
Active and inactive are the calls of the source.
attribute-measured: IC50

Nc1nc(-c2ccccc2)nc2sc3c(c12)CCCC3 ... 19 µM (active)
CCO/C=C1/C(=O)N(c2ccc(OC)cc2)C(=O)c2ccccc21 ... 7.36 µM (active)
c1ccc(Nc2ncnc3c2oc2ccccc23)cc1 ... 31.3 µM (active)
Fc1ccc(COc2ccc(C(=S)N3CCCC3)cc2)cc1 ... 7.14 µM (active)
CCC(=O)N(C1=C(NC)C(=O)c2ccccc2C1=O)C(C)C ... 6.86 µM (active)
O=[N+]([O-])c1cccnc1NCCNc1ncc(C(F)(F)F)cc1Cl ... 28.7 µM (active)

----------
target-or-test-system: Paired box protein Pax-8 (Homo sapiens, UniProt Q06710)
Sequence (Q06710 whole entry): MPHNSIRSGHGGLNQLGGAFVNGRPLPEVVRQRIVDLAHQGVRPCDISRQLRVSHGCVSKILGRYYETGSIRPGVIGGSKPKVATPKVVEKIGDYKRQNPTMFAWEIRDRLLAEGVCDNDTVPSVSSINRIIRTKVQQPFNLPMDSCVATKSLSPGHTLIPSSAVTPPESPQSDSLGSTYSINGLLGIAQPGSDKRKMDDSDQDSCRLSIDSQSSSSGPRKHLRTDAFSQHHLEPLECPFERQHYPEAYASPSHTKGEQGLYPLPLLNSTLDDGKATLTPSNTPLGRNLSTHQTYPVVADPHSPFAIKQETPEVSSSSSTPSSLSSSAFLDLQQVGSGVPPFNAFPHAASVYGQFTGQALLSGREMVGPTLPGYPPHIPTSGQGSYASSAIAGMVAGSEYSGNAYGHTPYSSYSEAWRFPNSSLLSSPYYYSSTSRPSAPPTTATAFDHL
assay-details: PAX8 transcriptional activity inhibition in RMG-I – RMG-I cells, luciferase, cherry-pick, dose response (AID 687027);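 note: luciferase reporter driven by Pax8 target thyroperoxidase promoter measured by SteadyGlo luminescence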
Assay type: functional, cell-based
Active and inactive are the calls of the source.
attribute-measured: AC50

CCCCn1cnc2c(c(-c3ccccc3)c(-c3ccccc3)n2Cc2ccco2)c1=N ... 9.7 µM (active)
COc1cc2c(c(OC)c1OC)-c1ccc(OC)c(=O)cc1C(NC(C)=O)CC2 (configuration not stated) ... < 0.26 µM (active)
Cc1ccc(S(=O)(=O)Nc2ccc3c(c2)CC(=O)N([C@@H](C)CO)C[C@H](C)[C@@H](CN(C)Cc2ccc(Oc4ccccc4)cc2)O3)cc1 ... 4.67 µM (active)
C[C@@H]1CN([C@H](C)CO)C(=O)c2cc(NS(=O)(=O)c3cccs3)ccc2O[C@@H](C)CCCCO[C@@H]1CN(C)Cc1ccc(Cl)c(Cl)c1 ... 4.91 µM (active)
CC[C@@]1(O)C(=O)OCc2c1cc1n(c2=O)Cc2cc3c(N)cccc3nc2-1 ... < 0.26 µM (active)
COc1ccc(S(=O)(=O)N(C)C[C@@H]2OCCCC[C@H](C)Oc3ccc(NS(=O)(=O)c4ccccc4)cc3C(=O)N([C@H](C)CO)C[C@H]2C)cc1 ... 5.15 µM (active)
C[C@H](CO)N1C[C@H](C)[C@@H](CN(C)Cc2ccncc2)Oc2ccc(NC(=O)Nc3ccc(C(F)(F)F)cc3)cc2CC1=O ... 5.69 µM (active)

----------
target-or-test-system: High affinity choline transporter 1 (Homo sapiens, UniProt Q9GZV3)
Sequence (Q9GZV3 whole entry): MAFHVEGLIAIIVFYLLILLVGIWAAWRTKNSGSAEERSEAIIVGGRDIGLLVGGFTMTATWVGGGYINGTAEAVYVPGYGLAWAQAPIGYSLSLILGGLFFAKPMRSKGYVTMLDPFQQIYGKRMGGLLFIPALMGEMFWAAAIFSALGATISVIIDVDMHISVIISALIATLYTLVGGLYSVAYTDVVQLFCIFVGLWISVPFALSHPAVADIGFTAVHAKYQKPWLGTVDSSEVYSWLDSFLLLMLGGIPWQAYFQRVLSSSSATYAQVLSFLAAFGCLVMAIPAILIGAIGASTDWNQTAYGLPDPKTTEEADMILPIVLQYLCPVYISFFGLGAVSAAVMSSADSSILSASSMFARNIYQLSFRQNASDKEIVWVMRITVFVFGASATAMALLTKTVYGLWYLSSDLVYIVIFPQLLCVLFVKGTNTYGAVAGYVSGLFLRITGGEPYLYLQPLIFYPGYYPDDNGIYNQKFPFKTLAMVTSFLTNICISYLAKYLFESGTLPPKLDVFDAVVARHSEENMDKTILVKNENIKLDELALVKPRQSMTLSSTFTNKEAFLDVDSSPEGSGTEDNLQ
assay-details: human choline transporter blockers, potency – cell-based, 5-point CRC, membrane potential dye, dose response (AID 504840)
Format: functional
Active and inactive are the calls of the source.
attribute-measured: IC50

C=CCc1ccc(OCC(O)CN2CCC(Cc3ccccc3)CC2)c(OC)c1 (stereo not given) ... 19.1 µM (active)
Cc1c(NC(=O)CSc2nnc(C(C)Oc3ccc(Cl)cc3)n2-c2ccccc2)c(=O)n(-c2ccccc2)n1C (stereo not given) ... 13.8 µM (active)
Cn1c(S)nnc1-c1sc2ccccc2c1Cl ... 8.32 µM (active)
N=c1n(Cc2ccccc2)c2ccccc2n1CC(O)COc1ccccc1 (stereo not given) ... 9.78 µM (active)
CC(C)CCN=C(S)Nc1ccc([N+](=O)[O-])cc1 ... 9.34 µM (active)

----------
Listed here: compounds with reported AC50 for Cytochrome P450 1A2 (Homo sapiens).
attribute-measured: AC50

COC(=O)[C@@]1(Cc2ccccc2)[C@H]2c3cc(C(=O)N(C)C)n(Cc4c(CO)ncc(C)c4O)c3C[C@H]2CN1C(=O)c1ccccc1 ... 25.1 µM (inconclusive)
O=C(C1CCN(S(=O)(=O)c2cccc3nsnc23)CC1)N1CCn2c1nc1ccccc12 ... 20 µM (inconclusive)
Cc1cc(OCC(F)(F)C(F)(F)C(F)(F)C(F)(F)C(F)(F)C(F)F)nc(N)n1 ... 28.2 µM (inconclusive)
CCC(=O)[C@@H](c1ccccc1)c1ccccn1 ... 5.01 µM (inconclusive)
COc1cc(NC(=O)c2cc(Cl)ccc2Cl)ccc1-c1cc2ccccc2oc1=O ... 12.6 µM (inconclusive)
O=C(O)c1cc([N+](=O)[O-])ccc1NCCCc1ccccc1 ... 39.8 µM (inconclusive)
O=C(CNC(=O)c1ccco1)OC(C(=O)c1ccccc1)c1ccccc1 (centres undefined) ... 15.8 µM (inconclusive)
O=c1cc(-c2ccc(O)cc2)oc2c([C@H]3O[C@@H](CO)[C@@H](O)[C@@H](O)[C@@H]3O)c(O)cc(O)c12 ... 20 µM (inconclusive)
CCCCCCN(CCCCCC)C(=O)Cc1c(-c2ccc(Cl)cc2)[nH]c2ccc(Cl)cc12 ... 31.6 µM (inconclusive)

----------
target-or-test-system: Dual specificity tyrosine-phosphorylation-regulated kinase 1A (Rattus norvegicus, UniProt Q63470)
Type: biochemical, Homo sapiens
Active and inactive are the calls of the source.
attribute-measured: AC50

O=C(NCc1ccco1)c1sc2ccccc2c1Cl ... 7.39 µM (active)
Cc1cc(Nc2ccccc2)nc2cc(O)ccc12 ... 4.44 µM (active)
O=C1C(O)=C(CC=C(Cl)Cl)C(=O)c2ccccc21 ... 4.87 µM (active)
COc1ccc(O)c(-c2cc(-c3cccs3)[nH]n2)c1 ... 10.6 µM (active)
OCCCNc1cc(-c2ccnc(Nc3cccc(Cl)c3)n2)ccn1 ... 0.013 µM (active)

----------
target-or-test-system: Troponin, cardiac muscle (Homo sapiens, UniProt P19429+P45379+P63316)
assay-details: Fluorescence-based biochemical high throughput dose response assay for activators of the calcium sensitivity of cardiac Regulated Thin Filaments (RTF). [Related pubchem assays (depositor defined):AID493008, AID493018, AID504382, AID504383]
Type: protein-complex assay
Active and inactive are the calls of the source.
Labels: active, inactive

COc1ccc(NC2=NC(=O)S/C2=C\c2ccc(N(C)C)cc2)cc1 ... active
O=C(c1cnc2ccccc2n1)N1CCN(c2ccc(C(F)(F)F)cn2)CC1 ... inactive
N#C/C(=C\c1ccc(-c2ccc(F)cc2)o1)C(=O)Nc1nc(-c2cccs2)cs1 ... inactive
CCCN1C=CC(=CC=C(C#N)C#N)C=C1 ... active
O=C(Cn1cnc2c(cnn2-c2ccccc2)c1=O)Nc1ccc(S(=O)(=O)N2CCOCC2)cc1 ... inactive

----------
Items are presented alongside their recorded IC50.
target-or-test-system: Rac GTPase-activating protein 1 (Homo sapiens, UniProt Q9H0H5)
Sequence (Q9H0H5 whole entry): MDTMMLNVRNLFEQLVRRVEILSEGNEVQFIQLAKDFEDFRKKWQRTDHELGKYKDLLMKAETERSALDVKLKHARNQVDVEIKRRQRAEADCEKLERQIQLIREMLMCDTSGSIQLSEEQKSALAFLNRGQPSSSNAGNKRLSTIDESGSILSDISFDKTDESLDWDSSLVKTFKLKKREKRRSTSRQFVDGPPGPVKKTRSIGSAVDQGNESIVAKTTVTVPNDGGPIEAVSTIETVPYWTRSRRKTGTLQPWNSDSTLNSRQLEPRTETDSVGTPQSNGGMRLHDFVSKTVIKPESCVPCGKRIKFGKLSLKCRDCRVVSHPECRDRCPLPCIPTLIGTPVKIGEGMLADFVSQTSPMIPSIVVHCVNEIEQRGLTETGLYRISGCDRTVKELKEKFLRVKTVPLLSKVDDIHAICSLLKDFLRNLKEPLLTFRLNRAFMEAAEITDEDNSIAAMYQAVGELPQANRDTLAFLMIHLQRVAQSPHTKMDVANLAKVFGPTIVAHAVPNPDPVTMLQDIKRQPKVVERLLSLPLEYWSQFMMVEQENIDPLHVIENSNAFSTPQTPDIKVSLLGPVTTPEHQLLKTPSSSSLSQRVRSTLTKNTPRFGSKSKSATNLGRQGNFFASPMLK
assay-details: blockers of MgcRacGAP-driven Rac1 GTP hydrolysis – biochemical, ADP Hunter fluorescence, primary and confirmatory, confirmation (AID 624330)
Type: functional
Activity calls are given as the source filed them.
attribute-measured: IC50

Cc1ccc(C2=NOC(=O)/C2=C\c2ccc(C)o2)cc1 ... 44.8 µM (active)
COc1cc(CN2CCC(C(=O)NC3CCCC3)CC2)ccc1O ... 133 µM (active)
COCCNCC(=O)Nc1nc(C)cs1 ... 105 µM (active)
Cc1ccc(C)c(-n2sc3ccc(F)cc3c2=O)c1 ... 34 µM (active)
Brc1csc(/C=N\c2ccc3c(c2)OCCOCCOCCOCCO3)c1 ... 75.2 µM (active)
N#C/C(=C/c1ccc2c(c1)OCO2)C(=O)Nc1ccc(O)cc1 ... 55.4 µM (active)
